Biological target: T1, 4H656-AA
T1 chain: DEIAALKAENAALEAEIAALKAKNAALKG
Assay: two-hybrid library CCmax;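 also: natural log of median RNA to DNA barcode read ratio; higher means stronger binding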
Settings: mean of both orientations
So basically: interaction score at -0.9 or higher? That is Satisfied. Lower than -0.9? That is Not satisfied.

binder	discrete label
DENAALEAEIAALEAKIAALEAKNAALKG [4H1064-AA]	Not satisfied
DKNAALKAKIAALKAEIAALKAKNAALKG [4H3920-AA]	Not satisfied
DEIAALEAKNAALEAKIAALKAENAALKG [4H428-AA]	Satisfied
DENAALKAKIAALEAENAALEAEIAALEG [4H1809-AA]	Not satisfied
DKNAALKAEIAALKAKNAALKAKIAALEG [4H3709-AA]	Satisfied

Please examine the following record next.
Would you say DKIAALKAKNAALKAENAALEAKIAALEG [4H3029-AA] shows interaction score at minimum -0.9?
Not satisfied
